EC50: recorded values
Tested on: phospho-akt (Thr308) in PC-3 cells
Experiment: Inhibition of phospho-akt (Thr308) in PC-3 cells, MSD phospho-akt 308 ELISA kit
Type: cell-based
Settings: Homo sapiens; inhibition of P308 Akt in PC-3 cells using MSD, 2 hours, no serum; read-out: EC50

C[C@H](NC(=O)c1cc(C#N)cnc1NCc1ccc(-c2cnc(N)c(O[C@H]3CCC[C@@H]3N)n2)cc1)c1ccc(F)cc1 [Example 168] :: 1000 to 10000 nM
Nc1ncnn2c(-c3ccc(CNc4ncc(C(F)(F)F)cc4C(=O)Nc4ccc(F)cc4)cc3)ccc12 [Example 180] :: 1000 to 10000 nM
Nc1n[nH]c2ncc(-c3ccc(CNc4ncc(C(F)(F)F)cc4C(=O)Nc4ccc(F)cn4)cc3)cc12 [Example 59] :: < 1000 nM
CNC(=O)c1cc(S(=O)(=O)NCCCN(C)C)cnc1NCc1ccc(-c2ccc3ncnc(N)c3c2)s1 [Example 341] :: > 10000 nM

input: GET /values?readout=EC50&item= C[C@H](NC(=O)c1nc(C#N)cnc1NCc1ccc(-c2cnc(N)c(CCCO)n2)cc1)c1ccc(F)c(F)c1 [Example 95]
output: < 1000 nM

input: GET /values?readout=EC50&item= CN1CCN(Cc2ccc(NC(=O)c3cc(C(F)(F)F)cnc3NCc3ccc(-c4cnc5[nH]nc(N)c5c4)cc3)cc2)CC1 [Example 285]
output: > 10000 nM

input: GET /values?readout=EC50&item= Nc1ncnc2c1c(-c1ccc(CNc3ncc(C(F)(F)F)cc3C(=O)Nc3ccc(F)cc3)cc1)cn2C1COC1 [Example 443]
output: < 1000 nM

input: GET /values?readout=EC50&item= Nc1cnc(-c2ccc(CNc3ncc(C(F)(F)F)cc3C(=O)NCc3ccc(F)cc3)cc2)cn1 [Example 383]
output: < 1000 nM

input: GET /values?readout=EC50&item= N#Cc1cnc(NCc2ccc(-c3cnc4[nH]c(=O)[nH]c4c3)cc2)c(C(=O)NCc2ccc(F)c(F)c2)c1 [Example 356]
output: < 1000 nM

input: GET /values?readout=EC50&item= C[C@H](NC(=O)c1cc(C#N)cnc1NCc1ccc(-c2cnc(N)c(OCCN)n2)cc1)c1ccc(F)cc1 [Example 165]
output: < 1000 nM

input: GET /values?readout=EC50&item= O=C(NCc1ccc(F)c(F)c1)c1cc(C(F)(F)F)cnc1NCc1ccc(-c2cnc3[nH]c(=O)[nH]c3c2)cc1 [Example 123]
output: < 1000 nM

input: GET /values?readout=EC50&item= CCCc1n[nH]c2ncc(-c3ccc(CNc4ncc(C#N)cc4C(=O)N[C@@H](C)c4ccc(F)cc4)cc3)cc12 [Example 147]
output: 1000 to 10000 nM
